- Tested on: Staphylococcus aureus
- Run parameters: Concentration 32 ug.mL-1; ASSAY_TEST Inhibition of Bacterial Growth; detection method Absorption (OD600); MEDIA CAMHB; plate type 384well; NBS; CORNING #3640; time 18 hr
- Description: Antibacterial activity against Staphylococcus aureus MRSA ATCC 43300 (CO-ADD:GP_020); MIC in CAMBH media, using NBS plates, by OD(600)
Measured potencies and affinities stand elsewhere.
Measurement kind: Inhibition (%)
Output spec: scalar in %, unitless text.

Guide cases for Inhibition, answers given:
1) COC1(N)Oc2ccc3ccccc3c2C(c2ccccc2)C1(Br)C#N (stereo not drawn): 16.73
2) Cn1ccnc1C1C(C#N)=C(N)Oc2c1ccc1cccnc21 (stereo not drawn): 12.96
3) COc1ccc2c(c1)cc(CNc1ccccc1)n2C: 20.09
4) c1ccc(CNc2ncnc3c2cnn3-c2ccccc2)cc1: 7.54
5) CC(C(=O)O)c1c[nH]c2ccccc12 (stereo not drawn): 5.61
6) CC1=C(CO)C(c2ccc(C#N)cc2)C(C#N)=C(N)O1 (stereo not drawn): 9.52
7) CC(=O)CCc1c[nH]c2ccccc12: 10.48
8) Clc1ccc(-c2cn3ccccc3n2)cc1: 13.75
9) Cl.ClCCCN1CCCC1: 23.18
10) O=Cc1c(-c2ccc(Br)cc2)nc2ccccn12: 3.95

Hello, I am looking for reported Inhibition with Staphylococcus aureus for N#Cc1c(N)nc2[nH]nc(N)c2c1-c1ccccc1 . Could you help?
40.83

Now consider C#CCNc1nc(NCC#C)c(C#N)cc1C#N .
-5.55

Now consider Cc1[nH]c2ccc(OCc3ccccc3)cc2c1C(=O)NN .
3.15
